assay: melting temperature; fluorescence melt of hairpins on a sequencing array, two-state fit, raised by 9.35 °C to match UV melts; settings: sodium 0.088 M
Quick rule for you: Tm under 50 °C gets criterion met, anything else gets criterion not met.

>>> classification("GCCGCGCGAAAGCGGAGC ((..(((....)))..))")
"criterion not met"
>>> classification("GCGACTGTTCGC ((((....))))")
"criterion met"
>>> classification("GCGCGCGAAAGCGGTCGC ((((((....)))..)))")
"criterion not met"

====

test: folding enthalpy; higher = less favourable; fluorescence melt of hairpins on a sequencing array, two-state fit; conditions: sodium 0.088 M
Test Readout: folding enthalpy (kcal/mol)

>>> numeric_result("GGTCCACGAAAGTGTACC (((.(((....))).)))")
-21.7
>>> numeric_result("GCTCGGCGAAAGCCAGC (((.(((....))))))")
-17.4
>>> numeric_result("GATCGGGATGCCGATC ((((((....))))))")
-42.1
>>> numeric_result("GGCCACCCGAAAGGGGCC (((..(((....))))))")
-23.2
>>> numeric_result("GGCCTCGAAAGAGGGGCC ((((((....)))..)))")
-23
>>> numeric_result("GATCCCTTTAGGGATC ((((((....))))))")
-39.3
>>> numeric_result("GGTCGGACGAAAGTCACC (((..(((....))))))")
-12.7
>>> numeric_result("GTTTCGAAAGAAAC (((((....)))))")
-29.1
>>> numeric_result("GTCGGACGAAAGTCGAC (((.(((....))))))")
-28
>>> numeric_result("GCGAGCAATCGC ((((....))))")
-23.8
>>> numeric_result("GCGAGAAGTCGC ((((....))))")
-18.3
>>> numeric_result("GATCTCTTTGGAGATC ((((((....))))))")
-44.5
>>> numeric_result("GATCTAACATTAGATC ((((((....))))))")
-22.6
>>> numeric_result("GATCCGATACCGGATC ((((((....))))))")
-29.9
>>> numeric_result("GCGTTGCAACGC ((((....))))")
-33.5
>>> numeric_result("GATCGCGCGAAAGCGATC (((..(((....))))))")
-25.8
>>> numeric_result("GATCATGCTAATGATC ((((((....))))))")
-42.7
>>> numeric_result("GCTGGGAAACCAGC (((((....)))))")
-29.9
>>> numeric_result("GTAGACACGAAAGTGTAC (((..(((....))))))")
-10.5
>>> numeric_result("GTGAGAGGAAACTCTTAC ((.((((....)))).))")
-30.9
>>> numeric_result("GCTTTCGAAAGAACGAGC ((((((....)))..)))")
-15.1
>>> numeric_result("GTCAAGGGAAACCCTGAC ((((.((....)).))))")
-33.8
>>> numeric_result("GCACAGCGAAAGCTGAGC ((.((((....)))).))")
-17.2
>>> numeric_result("GTCAAAGGAAACTTCGAC (((.(((....))).)))")
-19.4
>>> numeric_result("GATCTCATCAGAGATC ((((((....))))))")
-35.2
>>> numeric_result("GTTTTGGGAAACCAAGAC ((.((((....)))).))")
-24.6
